Kindly state pIC50 for each of the entries shown.
Target: hENPP2 (UniProtKB/SwissProt Sequence ref Q13822) (Homo sapiens (Human), UniProt Q13822)
Assay: LPC hENPP2 assay (choline release, LPC as substrate)
Format: biochemical
pIC50: −log10 of the molar value.

Observe how each entry below is paired with its result.
>>> data_value("CCc1nc2ccc(N3CC(C(=O)N4CCC(O)C4)C3)nn2c1N(C)c1nc(-c2ccc(F)cc2)cs1 (stereo not shown)")
"< 6.00"
>>> data_value("CCc1nc2ccc(N3CCN(CC(=O)N4CCCC4)[C@H](CO)C3)nn2c1N(C)c1nc(-c2ccc(F)cc2)cs1")
"6.30 to 7.00"
>>> data_value("CCc1nc2ccc(N3CCN(CC4CNC(=O)O4)CC3)nn2c1N(C)c1nc(-c2ccc(F)cc2)c(C#N)s1 (stereo not shown)")
"7.00 to 11.00"
>>> data_value("CCc1nc2ccc(N3CCC4(CNC(=O)O4)C3)nn2c1N(C)c1nc(-c2ccc(F)cc2)cs1 (stereo not shown)")
"6.00 to 6.30"
>>> data_value("CCOC(=O)NCCN1CCN(c2ccc3nc(CC)c(N(C)c4nc(-c5ccc(F)cc5)cs4)n3n2)CC1")
"< 6.00"

Respectfully, I request pIC50 for each entry included below.
1. CCc1nc2ccc(N3CCN(S(C)(=O)=O)[C@H](CO)C3)nn2c1N(C)c1nc(-c2ccc(F)cc2)cs1
2. CCc1nc2ccc(N3CCN(CC(=O)N(C)C)CC3)nn2c1N(C)c1nc(-c2ccc(F)cc2C)cs1

-- reply
1. 6.30 to 7.00
2. 6.30 to 7.00

Respectfully, I request pIC50 for each entry included below.
1. CCc1nc2ccc(N3CCCC(O)C3)nn2c1N(C)c1nc(-c2ccc(F)cc2)cs1 (stereo not shown)
2. CCc1nc2ccc(N3CCCN(S(C)(=O)=O)CC3)nn2c1N(C)c1nc(-c2ccc(F)cc2)cs1
3. CCc1nc2ccc(N3CC4CN(S(=O)(=O)CCCCl)CC4C3)nn2c1N(C)c1nc(-c2ccc(F)cc2)cs1 (stereo not shown)
4. CCc1nc2ccc(N3CCN(CC(=O)N(C)C)CC3)nn2c1N(C)c1nc(-c2ccc(F)cc2)c(C#N)s1

-- reply
["< 6.00", "< 6.00", "< 6.00", "7.00 to 11.00"]

Respectfully, I request pIC50 for each entry included below.
1. CCc1nc2ccc(N3CCC(O)(CNC(=O)OC)C3)nn2c1N(C)c1nc(-c2ccc(F)cc2)c(C#N)s1 (stereo not shown)
2. CN(c1nc(-c2ccc(F)cc2)cs1)c1c(CCCO)nc2ccc(C3CCN(S(C)(=O)=O)CC3)nn12
3. CCc1nc2ccc(N3CCC(N(C)C)CC3)nn2c1N(C)c1nc(-c2ccc(F)cc2)cs1

-- reply
7.00 to 11.00
< 6.00
< 6.00

====

Kindly state IC50 for each of the entries shown.
Target: hENPP2 (UniProtKB/SwissProt Sequence ref Q13822) (Homo sapiens (Human), UniProt Q13822)
Assay: LPC hENPP2 assay (choline release, LPC as substrate)
Assay type: biochemical

>>> data_value("CCc1nc2ccc(C3CCN(CC(=O)N4CC(O)C4)CC3)nn2c1N(C)c1cccc(-c2ccc(F)cc2C#N)n1")
"0.01 to 100 nM"
>>> data_value("CCc1nc2ccc(N3CC[C@H](NCC(=O)N4CC(O)C4)C3)nn2c1N(C)c1nc(-c2ccc(F)cc2)c(C#N)s1")
"0.01 to 100 nM"
>>> data_value("CCc1nc2ccc(N3CCC4(CN(C)C(=O)O4)C3)nn2c1N(C)c1nc(-c2ccc(F)cc2)c(C#N)s1 (stereo not shown)")
"100 to 500 nM"

For reference, reported IC50 for CCc1nc2ccc(N3C[C@H]4C[C@H]3CN4C(C)=O)nn2c1N(C)c1nc(-c2ccc(F)cc2)cs1 stands at > 1000 nM

====

Target: hENPP2 (UniProtKB/SwissProt Sequence ref Q13822) (Homo sapiens (Human), UniProt Q13822)
Assay: LPC hENPP2 assay (choline release, LPC as substrate)
Assay type: biochemical
pIC50: −log10 of the molar value.
Value type: pIC50

Observe how each entry below is paired with its result.
>>> data_value("CCc1nc2ccc(N3CCN(S(C)(=O)=O)[C@H](CO)C3)nn2c1N(C)c1nc(-c2ccc(F)cc2)c(C#N)s1 [Cpd 161]")
"6.30 to 7.00"
>>> data_value("CCc1nc2ccc(N3CCCC(C(N)=O)C3)nn2c1N(C)c1nc(-c2ccc(F)cc2)cs1 (stereo not shown) [Cpd 99]")
"< 6.00"
>>> data_value("CCc1nc2cnc(N3CCN(CC(=O)N4CC(F)(F)C4)CC3)cn2c1N(C)c1nc(-c2ccc(F)cc2)c(C#N)s1 [Cpd 3]")
"< 6.00"

Respectfully, I request pIC50 for each entry included below.
1. CCc1nc2ccc(N3CCC[C@H]3C(=O)O)nn2c1N(C)c1nc(-c2ccc(F)cc2)cs1 [Compound 138]
2. CCc1nc2ccc(N3CCC(N4CCCCC4)CC3)nn2c1N(C)c1nc(-c2ccc(F)cc2)cs1 [Cpd 111]
3. CCc1nc2ccc(N3CCC(NC(=O)OC(C)(C)C)C3)nn2c1N(C)c1nc(-c2ccc(F)cc2)cs1 (stereo not shown) [Cpd 133]

-- reply
1. < 6.00
2. < 6.00
3. < 6.00

For reference, reported pIC50 for CCc1nc2ccc(N3CCC4(CCN(C(C)=O)C4)C3)nn2c1N(C)c1nc(-c2ccc(F)cc2)c(C#N)s1 (stereo not shown) [Cpd 167] stands at 7.00 to 11.00

====

Target: hENPP2 (UniProtKB/SwissProt Sequence ref Q13822) (Homo sapiens (Human), UniProt Q13822)
Assay: LPC hENPP2 assay (choline release, LPC as substrate)
Format: biochemical
pIC50: −log10 of the molar value.
Value type: pIC50

Observe how each entry below is paired with its result.
>>> data_value("CCc1nc2cnc(C3CCNCC3)cn2c1N(C)c1nc(-c2ccc(F)cc2)c(C#N)s1")
"< 6.00"
>>> data_value("CCc1nc2ccc(N3CCN(CC4CNC(=O)O4)CC3)nn2c1N(C)c1nc(-c2ccc(F)cc2)c(CO)s1 (stereo not drawn)")
"6.00 to 6.30"
>>> data_value("CCc1nc2ccc(N3CCN(CC(=O)N4C(C)CCC4C)CC3)nn2c1N(C)c1nc(-c2ccc(F)cc2)cs1 (stereo not drawn)")
"< 6.00"

Respectfully, I request pIC50 for each entry included below.
1. CCc1nc2ccc(N3CCC(NCC(=O)OC)C3)nn2c1N(C)c1nc(-c2ccc(F)cc2)cs1 (stereo not drawn)
2. CCc1nc2ccc(N3CCC(CO)C3)nn2c1N(C)c1nc(-c2ccc(F)cc2)c(C#N)s1 (stereo not drawn)

-- reply
1. 6.00 to 6.30
2. 6.30 to 7.00

Respectfully, I request pIC50 for each entry included below.
1. CCc1nc2ccc(N3CCC(NC(=O)CO)CC3)nn2c1N(C)c1nc(-c2ccc(F)cc2)cs1
2. CCc1nc2ccc(N3CCN(S(=O)(=O)CCCN(C)C)[C@H](CO)C3)nn2c1N(C)c1nc(-c2ccc(F)cc2)cs1

-- reply
1: < 6.00; 2: 7.00 to 11.00

Respectfully, I request pIC50 for each entry included below.
1. CCc1nc2ccc(N3CCN(S(C)(=O)=O)C(CCO)C3)nn2c1N(C)c1nc(-c2ccc(F)cc2)cs1 (stereo not drawn)
2. CCc1nc2ccc(N3CC[C@@H](NCC(=O)N(C)C)C3)nn2c1N(C)c1nc(-c2ccc(F)cc2)c(C#N)s1
3. CCc1nc2ccc(N3CCN(CC(=O)N4CCCC4CO)CC3)nn2c1N(C)c1nc(-c2ccc(F)cc2)cs1 (stereo not drawn)
4. CCc1nc2ccc(N3CCC(N4CCC(O)CC4)C3)nn2c1N(C)c1nc(-c2ccc(F)cc2)c(C#N)s1 (stereo not drawn)
5. CCc1nc2cnc(N3CCN(CC(=O)N4CC(O)C4)CC3)cn2c1N(C)c1ncc(C#N)c(-c2ccc(F)cc2)n1

-- reply
["6.00 to 6.30", "7.00 to 11.00", "6.30 to 7.00", "7.00 to 11.00", "< 6.00"]

Respectfully, I request pIC50 for each entry included below.
1. CCc1nc2cnc(C3=CCN(S(C)(=O)=O)CC3)cn2c1N(C)c1nc(-c2ccc(F)cc2)c(C#N)s1
2. CCc1nc2cnc(N3CCN(CC(=O)N4CC(O)C4)CC3)cn2c1N(C)c1cccc(-c2ccc(F)cc2C#N)n1
3. CCc1nc2ccc(N3CCCC(CNS(C)(=O)=O)C3)nn2c1N(C)c1nc(-c2ccc(F)cc2)cs1 (stereo not drawn)

-- reply
["< 6.00", "< 6.00", "< 6.00"]

====

Kindly state IC50 for each of the entries shown.
Target: hENPP2 (UniProtKB/SwissProt Sequence ref Q13822) (Homo sapiens (Human), UniProt Q13822)
Assay: LPC hENPP2 assay (choline release, LPC as substrate)
Format: biochemical

>>> data_value("CCc1nc2ccc(N3CCC(S(=O)(=O)NC4CC4)CC3)nn2c1N(C)c1nc(-c2ccc(F)cc2)cs1")
"> 1000 nM"
>>> data_value("CCc1nc2ccc(N3CCC(N4CCS(=O)(=O)CC4)C3)nn2c1N(C)c1nc(-c2ccc(F)cc2)cs1 (stereo not shown)")
"> 1000 nM"
>>> data_value("CCc1nc2ccc(N3CCC4(CCN(C(=O)OC(C)(C)C)C4)C3)nn2c1N(C)c1nc(-c2ccc(F)cc2)c(C#N)s1 (stereo not shown)")
"100 to 500 nM"

Respectfully, I request IC50 for each entry included below.
1. CN(c1nc(-c2ccc(F)cc2)cs1)c1c(CCC#N)nc2ccc(C3CCN(S(C)(=O)=O)CC3)nn12
2. CCc1nc2ccc(N3CC(NCC(=O)NC)C3)nn2c1N(C)c1nc(-c2ccc(F)cc2)cs1
3. CCc1nc2ccc(N3CCN(CC(=O)N4CC[C@H](O)C4)CC3)nn2c1N(C)c1nc(-c2ccc(F)cc2)cs1
4. CCc1nc2ccc(N3CCC(NC(=O)C4(C)COC4)CC3)nn2c1N(C)c1nc(-c2ccc(F)cc2)cs1

-- reply
1: 100 to 500 nM; 2: 500 to 1000 nM; 3: 100 to 500 nM; 4: > 1000 nM

meta.source: patent US9796719B2
